Reference for the values: patent US20230348424A1

# key: entry, value: pIC50
measured.on: SOS1:KRAS (G12C) interaction (Homo sapiens (Human), UniProt Q07889)
Sequence (Q07889 564-1049, stated change not applied): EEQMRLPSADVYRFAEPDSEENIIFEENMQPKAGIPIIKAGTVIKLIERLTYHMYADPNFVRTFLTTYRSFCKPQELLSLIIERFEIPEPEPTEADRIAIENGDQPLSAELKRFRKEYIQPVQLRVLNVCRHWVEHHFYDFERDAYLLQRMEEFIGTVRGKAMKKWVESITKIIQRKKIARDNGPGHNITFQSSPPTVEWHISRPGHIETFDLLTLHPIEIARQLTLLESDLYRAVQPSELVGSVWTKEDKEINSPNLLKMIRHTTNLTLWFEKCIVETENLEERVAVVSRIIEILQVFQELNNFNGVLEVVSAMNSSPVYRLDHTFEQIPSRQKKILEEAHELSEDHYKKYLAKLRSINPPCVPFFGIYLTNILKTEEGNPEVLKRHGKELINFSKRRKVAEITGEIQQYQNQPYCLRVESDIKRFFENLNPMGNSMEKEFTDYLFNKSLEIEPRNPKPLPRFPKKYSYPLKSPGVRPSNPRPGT
test.protocol: SOS1 KRas(G12C) FRET Assay
protocol.conditions: 0.5 nM His10-SOS1 (res. 564-1049), 2.5 nM GST-KRAS G12C (res. 1-169), 2 hrs at RT
pIC50: −log10 of the molar value.
measure: pIC50

compound="C[C@H](NC(=O)c1cn(C23CC(C2)C3)c(=O)cc1N[C@H]1[C@@H]2CN(C)C[C@@H]21)c1cccc(C#N)c1Cl (single isomer, unassigned)" relation=< measured_result=5.00
compound=C[C@@H](NC(=O)c1cn(C2(C(F)F)CC2)c(=O)cc1NC1CCN(C)CC1)c1cccc2c1OCC2(F)F relation== measured_result=7.81
compound=C[C@@H](NC(=O)c1cn(C2(C(F)F)CC2)c(=O)cc1N[C@H]1CN2CCC1(F)CC2)c1cccc(C(F)F)c1F relation== measured_result=7.56
compound=C[C@@H](NC(=O)c1cn(C2(C(F)F)CC2)c(=O)cc1NC1CCN(C2(C)CC2)CC1)c1cccc(C(F)F)c1F relation== measured_result=7.63
compound=C[C@@H](NC(=O)c1cn([C@]23COC[C@H]2C3)c(=O)cc1N[C@H]1[C@@H]2CN(C)C[C@@H]21)c1cccc(C(F)(F)F)c1F relation== measured_result=8.04
compound=C[C@@H](NC(=O)c1cn(C2(C(F)F)CC2)c(=O)cc1NC1CCN(C)CC1)c1cccc2c(F)coc12 relation== measured_result=7.58
compound="Cc1c([C@@H](C)NC(=O)c2cn(C3CCOCC3)c(=O)cc2N[C@H]2CCCN(C)CC2)cccc1C(F)(F)F (single isomer, unassigned)" relation== measured_result=7.74
compound=C[C@@H](NC(=O)c1cn(C2(C(F)(F)F)CCCC2)c(=O)cc1NC1CCN(C)CC1)c1cccc(C(F)F)c1F relation== measured_result=7.85
compound="CC(=O)N1CCC(C)(n2cc(C(=O)N[C@H](C)c3cccc(C(F)F)c3F)c(NC3CCN(C)CC3)cc2=O)C1 (stereo partly shown)" relation== measured_result=8.66
compound="C[C@@H](NC(=O)c1cn(C2(C(F)F)CC2)c(=O)cc1N[C@@H]1CCNC2(CC2)C1)c1cccc(C(F)F)c1F (single isomer, unassigned)" relation== measured_result=7.62
compound="CC(NC(=O)c1cn(C2(C(F)F)CC2)c(=O)cc1N[C@H]1[C@@H]2CN(C)C[C@@H]21)c1cccc(C(F)(F)c2cocn2)c1F (stereo partly shown)" relation== measured_result=6.96
compound="Cc1c([C@@H](C)NC(=O)c2cn(C3CCOCC3)c(=O)cc2NC2[C@@H]3C[C@H]2CN(C)C3)cccc1C(F)(F)F (single isomer, unassigned)" relation== measured_result=7.59
compound=C[C@@H](NC(=O)c1cn(C2(C(F)F)CC2)c(=O)cc1NC[C@H]1CCCN1C)c1cccc(C(F)F)c1F relation== measured_result=7.42
